- System: 967376-340-R-J2-PDC multicell spheroid viability
- Protocol Details: Anticancer human tumor 967376-340-R-J2-PDC patient-derived colon adenocarcinoma cell line growth inhibition [PI3K]
- Condition Set: second compound 10 µM; first compound 3.16 µM; active compounds read low
# viability, T/C per record follows

{"Molecule": "CC(C)NCC(C(=O)N1CCN(c2ncnc3c2C(C)CC3O)CC1)c1ccc(Cl)cc1 (stereo not drawn) + Cc1nc(NC(=O)N2CCCC2C(N)=O)sc1-c1ccnc(C(C)(C)C(F)(F)F)c1", "viability, T/C, %": 55.6}
{"Molecule": "CC1(C)CCC(Nc2ncc(C(F)(F)F)c(-c3c[nH]c4c(P(C)(C)=O)c(C#N)ccc34)n2)CN1 (stereo not drawn) + CC(Nc1ncnc2nc[nH]c12)c1cc2cccc(Cl)c2c(=O)n1-c1ccccc1", "viability, T/C, %": 56.8}
{"Molecule": "CNC(=O)c1ccc(N2C(=S)N(c3ccc(C#N)c(C(F)(F)F)c3)C(=O)C2(C)C)cc1F + CC(Nc1ncnc2nc[nH]c12)c1cc2cccc(Cl)c2c(=O)n1-c1ccccc1", "viability, T/C, %": 92.3}

====

- System: 967376-340-R-J2-PDC multicell spheroid viability
- Protocol Details: Anticancer human tumor 967376-340-R-J2-PDC cell line growth inhibition [PI3K];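 note: luminescence used as surrogate of cell viability; spheroids exposed to agents for 7 days before read-out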
- Condition Set: second compound 0.0316 µM; first compound 3.16 µM; active compounds read low
# viability, T/C per record follows

{"Molecule": "CCCS(=O)(=O)Nc1ccc(F)c(C(=O)c2c[nH]c3ncc(-c4ccc(Cl)cc4)cc23)c1F + CC(Nc1ccc2c(c1)OCCn1cc(N3C(=O)OCC3C(F)F)nc1-2)C(N)=O", "Value Units": "%", "viability, T/C": 91.9}
{"Molecule": "Cn1nccc1Nc1nccc(-c2ccn(C(CO)c3ccc(Cl)c(F)c3)c(=O)c2)n1 (stereo not given) + CC(Nc1ncnc2nc[nH]c12)c1cc2cccc(Cl)c2c(=O)n1-c1ccccc1", "Value Units": "%", "viability, T/C": 101}
{"Molecule": "CC1(C)CCC(CN2CCN(c3ccc(C(=O)NS(=O)(=O)c4ccc(NCC5CCOCC5)c([N+](=O)[O-])c4)c(Oc4cnc5[nH]ccc5c4)c3)CC2)=C(c2ccc(Cl)cc2)C1 + CC(Nc1ccc2c(c1)OCCn1cc(N3C(=O)OCC3C(F)F)nc1-2)C(N)=O", "Value Units": "%", "viability, T/C": 75.9}
{"Molecule": "CNC(=O)c1ccc(N2C(=S)N(c3ccc(C#N)c(C(F)(F)F)c3)C(=O)C2(C)C)cc1F + CC(Nc1ncnc2nc[nH]c12)c1cc2cccc(Cl)c2c(=O)n1-c1ccccc1", "Value Units": "%", "viability, T/C": 134}
{"Molecule": "Cn1ncc(Cl)c1-c1cc(C(=O)NC(CN)Cc2cccc(F)c2)sc1Cl (stereo not given) + Cc1nc(NC(=O)N2CCCC2C(N)=O)sc1-c1ccnc(C(C)(C)C(F)(F)F)c1", "Value Units": "%", "viability, T/C": 61.3}
{"Molecule": "CC1(C)CCC(Nc2ncc(C(F)(F)F)c(-c3c[nH]c4c(P(C)(C)=O)c(C#N)ccc34)n2)CN1 (stereo not given) + CC(Nc1ncnc2nc[nH]c12)c1cc2cccc(Cl)c2c(=O)n1-c1ccccc1", "Value Units": "%", "viability, T/C": 68.3}
{"Molecule": "Cn1nccc1Nc1nccc(-c2ccn(C(CO)c3ccc(Cl)c(F)c3)c(=O)c2)n1 (stereo not given) + CC(Nc1ccc2c(c1)OCCn1cc(N3C(=O)OCC3C(F)F)nc1-2)C(N)=O", "Value Units": "%", "viability, T/C": 70.9}
{"Molecule": "Cn1ncc(Cl)c1-c1cc(C(=O)NC(CN)Cc2cccc(F)c2)sc1Cl (stereo not given) + COc1c(OCCCN2CCOCC2)ccc2c3n(c(=NC(=O)c4cnc(N)nc4)nc12)CCN3", "Value Units": "%", "viability, T/C": 57.8}
{"Molecule": "CC(C)NCC(C(=O)N1CCN(c2ncnc3c2C(C)CC3O)CC1)c1ccc(Cl)cc1 (stereo not given) + CC(Nc1ccc2c(c1)OCCn1cc(N3C(=O)OCC3C(F)F)nc1-2)C(N)=O", "Value Units": "%", "viability, T/C": 73.5}
{"Molecule": "C=CC(=O)N1CCN(c2nc(=O)n(-c3c(C)ccnc3C(C)C)c3nc(-c4c(O)cccc4F)c(F)cc23)C(C)C1 (stereo not given) + COc1c(OCCCN2CCOCC2)ccc2c3n(c(=NC(=O)c4cnc(N)nc4)nc12)CCN3", "Value Units": "%", "viability, T/C": 85.6}

====

- System: 967376-340-R-J2-PDC multicell spheroid viability
- Protocol Details: Anticancer human tumor 967376-340-R-J2-PDC cell line growth inhibition [PI3K];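 note: luminescence used as surrogate of cell viability; spheroids exposed to agents for 7 days before read-out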
- Condition Set: second compound 0.316 µM; first compound 3.16 µM; active compounds read low
# viability, T/C per record follows
Result Type: viability, T/C

{"Compound": "Cn1nccc1Nc1nccc(-c2ccn(C(CO)c3ccc(Cl)c(F)c3)c(=O)c2)n1 (configuration not stated) + CC(Nc1ccc2c(c1)OCCn1cc(N3C(=O)OCC3C(F)F)nc1-2)C(N)=O", "Result Type": "viability, T/C", "Value Reported": "63.1%"}
{"Compound": "C[C@@H](NC(=O)c1ncnc(N)c1Cl)c1ncc(C(=O)Nc2cc(C(F)(F)F)c(Cl)cn2)s1 + COc1c(OCCCN2CCOCC2)ccc2c3n(c(=NC(=O)c4cnc(N)nc4)nc12)CCN3", "Result Type": "viability, T/C", "Value Reported": "56.6%"}
{"Compound": "C=CC(=O)N1CCN(c2nc(=O)n(-c3c(C)ccnc3C(C)C)c3nc(-c4c(O)cccc4F)c(F)cc23)C(C)C1 (configuration not stated) + Cc1nc(NC(=O)N2CCCC2C(N)=O)sc1-c1ccnc(C(C)(C)C(F)(F)F)c1", "Result Type": "viability, T/C", "Value Reported": "91.3%"}
{"Compound": "CC(Cn1ccc(-c2ccc(C#N)c(Cl)c2)n1)NC(=O)c1cc(C(C)O)[nH]n1 (configuration not stated) + CC(Nc1ncnc2nc[nH]c12)c1cc2cccc(Cl)c2c(=O)n1-c1ccccc1", "Result Type": "viability, T/C", "Value Reported": "89%"}
{"Compound": "Cn1nccc1Nc1nccc(-c2ccn(C(CO)c3ccc(Cl)c(F)c3)c(=O)c2)n1 (configuration not stated) + COc1c(OCCCN2CCOCC2)ccc2c3n(c(=NC(=O)c4cnc(N)nc4)nc12)CCN3", "Result Type": "viability, T/C", "Value Reported": "57.5%"}
{"Compound": "Cn1nccc1Nc1nccc(-c2ccn(C(CO)c3ccc(Cl)c(F)c3)c(=O)c2)n1 (configuration not stated) + CC(Nc1ncnc2nc[nH]c12)c1cc2cccc(Cl)c2c(=O)n1-c1ccccc1", "Result Type": "viability, T/C", "Value Reported": "104%"}
{"Compound": "Cn1ncc(Cl)c1-c1cc(C(=O)NC(CN)Cc2cccc(F)c2)sc1Cl (configuration not stated) + CC(Nc1ncnc2nc[nH]c12)c1cc2cccc(Cl)c2c(=O)n1-c1ccccc1", "Result Type": "viability, T/C", "Value Reported": "78.3%"}

====

- Tested on: 967376-340-R-J2-PDC multicell spheroid viability
- Protocol Details: Anticancer human tumor 967376-340-R-J2-PDC cell line growth inhibition [PI3K];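 note: luminescence used as surrogate of cell viability; spheroids exposed to agents for 7 days before read-out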
- Condition Set: second compound 0.01 µM; first compound 0.1 µM; active compounds read low
# viability, T/C per record follows

{"Compound": "CC1(C)CCC(Nc2ncc(C(F)(F)F)c(-c3c[nH]c4c(P(C)(C)=O)c(C#N)ccc34)n2)CN1 (centres undefined) + CC(Nc1ccc2c(c1)OCCn1cc(N3C(=O)OCC3C(F)F)nc1-2)C(N)=O", "viability, T/C [%]": 88.1}
{"Compound": "CC1(C)CCC(CN2CCN(c3ccc(C(=O)NS(=O)(=O)c4ccc(NCC5CCOCC5)c([N+](=O)[O-])c4)c(Oc4cnc5[nH]ccc5c4)c3)CC2)=C(c2ccc(Cl)cc2)C1 + COc1c(OCCCN2CCOCC2)ccc2c3n(c(=NC(=O)c4cnc(N)nc4)nc12)CCN3", "viability, T/C [%]": 87.6}
{"Compound": "C#Cc1c(F)ccc2cc(O)cc(-c3ncc4c(N5CC6CCC(C5)N6)nc(OCC56CCCN5CC(F)C6)nc4c3F)c12 (centres undefined) + COc1c(OCCCN2CCOCC2)ccc2c3n(c(=NC(=O)c4cnc(N)nc4)nc12)CCN3", "viability, T/C [%]": 102}
{"Compound": "Cn1ncc(Cl)c1-c1cc(C(=O)NC(CN)Cc2cccc(F)c2)sc1Cl (centres undefined) + COc1c(OCCCN2CCOCC2)ccc2c3n(c(=NC(=O)c4cnc(N)nc4)nc12)CCN3", "viability, T/C [%]": 106}
{"Compound": "Cn1nccc1Nc1nccc(-c2ccn(C(CO)c3ccc(Cl)c(F)c3)c(=O)c2)n1 (centres undefined) + COc1c(OCCCN2CCOCC2)ccc2c3n(c(=NC(=O)c4cnc(N)nc4)nc12)CCN3", "viability, T/C [%]": 87.6}
{"Compound": "CC(=O)c1c(C)c2cnc(Nc3ccc(N4CCNCC4)cn3)nc2n(C2CCCC2)c1=O + COc1c(OCCCN2CCOCC2)ccc2c3n(c(=NC(=O)c4cnc(N)nc4)nc12)CCN3", "viability, T/C [%]": 60.9}
{"Compound": "C=CC(=O)N1CCN(c2nc(=O)n(-c3c(C)ccnc3C(C)C)c3nc(-c4c(O)cccc4F)c(F)cc23)C(C)C1 (centres undefined) + COc1c(OCCCN2CCOCC2)ccc2c3n(c(=NC(=O)c4cnc(N)nc4)nc12)CCN3", "viability, T/C [%]": 97.8}
{"Compound": "C#Cc1c(F)ccc2cc(O)cc(-c3ncc4c(N5CC6CCC(C5)N6)nc(OCC56CCCN5CC(F)C6)nc4c3F)c12 (centres undefined) + CC(Nc1ccc2c(c1)OCCn1cc(N3C(=O)OCC3C(F)F)nc1-2)C(N)=O", "viability, T/C [%]": 86}
{"Compound": "CC(=O)c1c(C)c2cnc(Nc3ccc(N4CCNCC4)cn3)nc2n(C2CCCC2)c1=O + CC(Nc1ccc2c(c1)OCCn1cc(N3C(=O)OCC3C(F)F)nc1-2)C(N)=O", "viability, T/C [%]": 75.8}
{"Compound": "Cn1ncnc1[C@H]1c2n[nH]c(=O)c3cc(F)cc(c23)N[C@@H]1c1ccc(F)cc1 + COc1c(OCCCN2CCOCC2)ccc2c3n(c(=NC(=O)c4cnc(N)nc4)nc12)CCN3", "viability, T/C [%]": 87.9}
{"Compound": "CCN1CCN(Cc2ccc(Nc3ncc(F)c(-c4cc(F)c5nc(C)n(C(C)C)c5c4)n3)nc2)CC1 + CC(Nc1ccc2c(c1)OCCn1cc(N3C(=O)OCC3C(F)F)nc1-2)C(N)=O", "viability, T/C [%]": 93.2}
{"Compound": "CC(C)NCC(C(=O)N1CCN(c2ncnc3c2C(C)CC3O)CC1)c1ccc(Cl)cc1 (centres undefined) + COc1c(OCCCN2CCOCC2)ccc2c3n(c(=NC(=O)c4cnc(N)nc4)nc12)CCN3", "viability, T/C [%]": 75.4}
{"Compound": "C[C@@H](NC(=O)c1ncnc(N)c1Cl)c1ncc(C(=O)Nc2cc(C(F)(F)F)c(Cl)cn2)s1 + COc1c(OCCCN2CCOCC2)ccc2c3n(c(=NC(=O)c4cnc(N)nc4)nc12)CCN3", "viability, T/C [%]": 84.5}
{"Compound": "CCCS(=O)(=O)Nc1ccc(F)c(C(=O)c2c[nH]c3ncc(-c4ccc(Cl)cc4)cc23)c1F + CC(Nc1ccc2c(c1)OCCn1cc(N3C(=O)OCC3C(F)F)nc1-2)C(N)=O", "viability, T/C [%]": 86.5}
